# credit: patent EP2608671B1

Provide the reported IC50 of each item.
system: WM-164; experiment: SRB cell growth inhibition (cytotoxicity) assay; assay type: cell-based, human; details: Homo sapiens, WM164; SRB assay, 96 h; Table 2; read-out: IC50 ± SEM (nM), WM-164
Give a bare numeral; the unit nM is implied.

Enquiry: For the compound COc1cc(C(=C(C)C)c2csc(-c3ccccc3)n2)cc(OC)c1OC [2a] , give its measured IC50 value.
Return: 3700

Enquiry: Return the recorded IC50 value; entry: COc1cc(C(=NC#N)c2csc(-c3ccccc3)n2)cc(OC)c1OC [2j]
Return: 27

Enquiry: Return the recorded IC50 value; entry: COc1cc(Sc2cccc(-c3ccccc3)c2)cc(OC)c1OC [4a]
Return: 2000

Enquiry: Tell me IC50 reported for CO/N=C(/c1cc(OC)c(OC)c(OC)c1)c1csc(-c2ccccc2)n1 [2f-cis]
Return: 3400

###

Record form. Attribute: IC50. Fill in for each entry.
test system: prostate cancer cell lines (LNCaP, DU 145, PC-3, PPC-1); test: SRB cytotoxicity, prostate cancer cell panel (text summaries); format: cell-based; details: Homo sapiens; summary of Table 1; read-out: IC50 against prostate cancer cells

Enquiry: Given COc1cc(C(=O)c2cc(-c3ccccc3)ncn2)cc(OC)c1OC , respond with its IC50.
Return: 3.7 to 8.3 µM

Enquiry: Kindly indicate its recorded IC50. Item: COc1cc(C(=O)c2cnc(-c3ccccc3)s2)cc(OC)c1OC
Return: > 10 µM

Enquiry: Give recorded IC50. COc1cc(C(=O)N2CCC(c3ccccc3)CC2)cc(OC)c1OC
Return: > 20 µM

Enquiry: Hello, please tell me recorded IC50 for this one: COc1cc(C(=O)c2cc(-c3ccccc3)on2)cc(OC)c1OC
Return: > 10 µM

###

test system: OVCAR-8; assay: SRB growth inhibition, MDR model parent line; format: cell-based, human; settings: Homo sapiens, OVCAR-8; parental cell line, n=3; read-out: IC50 ± SEM (nmol/L) OVCAR-8
attribute-measured: IC50 (nmol/L)
Supply the numeric figure in nmol/L, leaving out any unit text.

Enquiry: State IC50 (OVCAR-8) of COc1ccc(S(=O)(=O)Nc2cccnc2Nc2ccc(O)cc2)cc1 [ABT-751] .
Return: 785

###

test system: LNCaP; assay: cells; conditions: Homo sapiens, 96 h, read-out: IC50 ± SEM (nM), LNCaP
attribute-measured: IC50 (nM)
Field format: number, assumed nM, no unit text.

Enquiry: Fill in reported IC50 for this entry: COc1cc(/C(=N/O)c2csc(-c3ccccc3)n2)cc(OC)c1OC [2e-cis]
Return: 189

Enquiry: Recall and state the measured IC50 for COc1cc(C(=O)c2cccc(-c3ccccc3)c2)cc(OC)c1OC [1a] .
Return: 234

Enquiry: Provide measured IC50 value, entry: COc1cc(C(=O)c2c[nH]c(-c3ccc(C(F)(F)F)cc3)n2)cc(OC)c1OC [12pa]
Return: 134

Enquiry: Provide measured IC50 value, entry: O=C(c1ccc(F)cc1)c1cn(S(=O)(=O)c2ccccc2)c(-c2ccc(OCc3ccccc3)cc2)n1 [11jb]
Return: 35

###

tested on: PC-3; test: cells; settings: Homo sapiens, PC-3, 96 h, read-out: IC50 ± SEM (nM), PC-3
Please note: IC50 exactly at 40 nM is Condition not met. Only values below 40 nM get Condition met.

Enquiry: # strict comparison: is reported IC50 < 40 nM? input = COc1cc(C(=O)c2c[nH]c(-c3ccc(Br)cc3)n2)cc(OC)c1OC [12la]
Return: Condition met

Enquiry: Please check: IC50 for COc1cc(C(=O)c2cn(S(=O)(=O)c3ccccc3)c(-c3ccc(N(C)C)cc3)n2)cc(OC)c1OC [11ga] , strictly under 40 nM or not?
Return: Condition not met

Enquiry: Item COc1cc(-c2nc(C(=O)c3ccc(F)cc3)c[nH]2)cc(OC)c1OC [12eb] : IC50 beneath 40 nM, strictly?
Return: Condition not met

Enquiry: Please indicate whether the reported IC50 of CNCc1ccc(-c2nc(C(=O)c3cc(OC)c(OC)c(OC)c3)cs2)cc1.Cl [2s, hydrochloride] is strictly below 40 nM.
Return: Condition not met

Enquiry: Just wondering, is IC50 of COc1cc([S+]([O-])c2cccc(-c3ccccc3)c2)cc(OC)c1OC (stereo not drawn) below 40 nM?
Return: Condition not met

Enquiry: Report whether reported IC50 is lower than 40 nM (strictly) for COc1cc(C(=NC#N)c2csc(-c3ccccc3)n2)cc(OC)c1OC
Return: Condition met

Enquiry: Given the entry COc1cc(C(=O)c2csc(-c3ccccc3)n2)cc(OC)c1OC , would its reported IC50 be below 40 nM?
Return: Condition met

Enquiry: Is it true that IC50 reported for O=C(c1ccc(F)cc1)c1cn(S(=O)(=O)c2ccccc2)c(-c2ccccc2)n1 [11af] is less than 40 nM?
Return: Condition not met

Enquiry: Determine whether this compound shows IC50 lower than 40 nM (ties excluded): COc1cc(C(O)c2csc(-c3ccccc3)n2)cc(OC)c1OC (stereo not drawn)
Return: Condition not met
